Biological target: AHR (Homo sapiens, UniProt P35869)
Construct: A human liver cancer cell line HepG2 endogenously expressing an AHR protein
Sequence (P35869 11-848): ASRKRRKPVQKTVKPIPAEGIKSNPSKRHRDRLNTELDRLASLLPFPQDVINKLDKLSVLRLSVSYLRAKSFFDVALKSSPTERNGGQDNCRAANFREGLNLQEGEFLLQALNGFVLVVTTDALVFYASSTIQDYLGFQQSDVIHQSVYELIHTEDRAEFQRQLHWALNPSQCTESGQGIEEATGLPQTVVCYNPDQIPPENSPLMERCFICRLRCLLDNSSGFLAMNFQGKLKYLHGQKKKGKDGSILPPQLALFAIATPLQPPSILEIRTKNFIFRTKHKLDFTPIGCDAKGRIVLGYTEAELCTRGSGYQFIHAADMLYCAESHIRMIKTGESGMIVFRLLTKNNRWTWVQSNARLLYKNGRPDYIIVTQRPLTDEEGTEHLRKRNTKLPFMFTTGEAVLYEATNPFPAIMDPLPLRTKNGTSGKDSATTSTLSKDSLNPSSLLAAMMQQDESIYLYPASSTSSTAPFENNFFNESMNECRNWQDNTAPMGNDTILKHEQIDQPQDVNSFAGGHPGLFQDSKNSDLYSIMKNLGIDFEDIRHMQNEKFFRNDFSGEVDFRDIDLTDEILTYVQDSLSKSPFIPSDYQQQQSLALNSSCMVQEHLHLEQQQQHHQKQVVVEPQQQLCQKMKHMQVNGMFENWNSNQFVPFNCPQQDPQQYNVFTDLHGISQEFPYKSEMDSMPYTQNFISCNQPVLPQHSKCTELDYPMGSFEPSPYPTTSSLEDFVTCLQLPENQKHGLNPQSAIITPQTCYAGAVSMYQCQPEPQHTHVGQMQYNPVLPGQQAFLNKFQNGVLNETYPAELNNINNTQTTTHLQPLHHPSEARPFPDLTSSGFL
Test: Antagonistic effect for AHR in HepG2 cells stably transfected with CYP1A1-promoter firefly luciferase reporter
Conditions: AHR agonist-stimulated, 24 h compound treatment, average of two replicates
// values below are reported IC50
observable: IC50

{"columns": ["molecule", "result"],
 "data": [
  ["O=C(NN1CCS(=O)(=O)CC1)c1cc(-c2ccc(C(F)(F)F)cc2)nc(-c2cccnc2)n1", "500 to 1000 nM"],
  ["CC(C)N(NC(=O)c1cc(-c2ccc(C(F)(F)F)cc2)nc(-c2cccnc2)n1)C(C)CO (stereo not drawn)", "≤ 500 nM"],
  ["O=C(NN1CCOC[C@H]1CO)c1cc(-c2ccc(Cl)cc2)nc(-c2cccnc2)n1 (stereo in doubt)", "≤ 500 nM"]
]}
